- System: goosegrass (Eleusine indica)
- procedureDetails: Test A1 preemergence, goosegrass
- Type: in vivo
- measurementConditions: 31 g ai/ha, 0 to 100 scale (0 no effect, 100 complete control)
# 1 (yes) = Plant response rating, Goosegrass below 60 (exclusive); 0 (no) = Plant response rating, Goosegrass at/above 60

- compound: "COc1cc(C)c(NS(=O)(=O)C(F)(F)F)cc1C1=NOC2CCCC12 (centres unmarked)"
  classification: "1 (yes)"
- compound: "Cc1cc(C)c(C2=NOC3CCCCCC23)cc1NS(=O)(=O)C(F)(F)F (centres unmarked)"
  classification: "0 (no)"
- compound: "Cc1c(NS(=O)(=O)C(F)(F)F)cc(C(=O)N2CCOCC2)c(C)c1Cl"
  classification: "0 (no)"
- compound: "Cc1cc(C)c(N(COC(=O)C(C)(C)C)S(=O)(=O)C(F)(F)F)cc1C1=NOC2(C)CCCC12 (centres unmarked)"
  classification: "1 (yes)"
- compound: "Cc1c(NS(=O)(=O)C(F)(F)F)cc(C2=NOC3CCCC23)c(C)c1C (centres unmarked)"
  classification: "1 (yes)"
- compound: "Cc1c(C(=O)N2CCOCC2)cc(NS(=O)(=O)C(F)(F)F)c(Cl)c1F"
  classification: "0 (no)"
- compound: "CCOC(=O)N(c1cc(C(=O)N2CCC(C)CC2)c(C)cc1C)S(=O)(=O)C(F)(F)F"
  classification: "0 (no)"
